Origin of measurements: patent US9968587B2

# Measured On: UniProt:Q9KM66
# Method Summary: CqsS agonist bioassay (V. cholerae reporter strain MM920, bioluminescence)
# Setup Conditions: read-out: % Response, complete bioassay data; percent maximal bioluminescence with respect to Ea-CAI-1 (100%), error = 95% confidence interval
Outcome Measure: Emax (%)
Give the quantity in %, number only.

Compound	Outcome Measure	Measured Result
CCCCCCCCCC(=O)c1cc(C)[nH]c1C [Compound 19]	Emax	66
CCCCc1ccc(/C=C/C(=O)c2cc[nH]c2)cc1 [Compound 30]	Emax	54
C/C=C(\N)C(=O)CCCCC [Compound 6, (Z)-3-aminonon-2-en-4-one]	Emax	100
CCCCCCCCCC(=O)c1ccc[nH]1 [Compound 17, 1-(1H-pyrrol-2-yl)decan-1-one]	Emax	103
C/C=C(\N)C(=O)CCCCCCCCCCCC [Compound 11, (Z)-3-aminohexadec-2-en-4-one]	Emax	38
O=C(Cc1ccc(-c2ccccc2)cc1)c1ccc[nH]1 [Compound 35]	Emax	26
CCCCc1ccc(CCC(=O)c2cc[nH]c2)cc1 [Compound 26]	Emax	64
O=C(CCCCCCc1ccccc1)c1ccc[nH]1 [Compound 29, 7-phenyl-1-(1H-pyrrol-2-yl)heptan-1-one]	Emax	60
CCCCc1ccc(/C=C/C(=O)c2ccc[nH]2)cc1 [Compound 31]	Emax	45
O=C(Cc1ccc(-c2ccccc2)cc1)c1cc[nH]c1 [Compound 34]	Emax	25

stdin: Report Emax for C/C=C(\N)C(=O)CCCCCCC [Compound 8, (Z)-3-aminoundec-2-en-4-one]
stdout: 109

stdin: Find the measured Emax of CCCCc1ccc(CCC(=O)c2ccc[nH]2)cc1 [Compound 27] and report it.
stdout: 75

---

# Measured On: V. cholerae CqsS receptor (Vibrio cholerae serotype O1, UniProt Q9KM66)
# Sequence (Q9KM66 whole entry, looked up): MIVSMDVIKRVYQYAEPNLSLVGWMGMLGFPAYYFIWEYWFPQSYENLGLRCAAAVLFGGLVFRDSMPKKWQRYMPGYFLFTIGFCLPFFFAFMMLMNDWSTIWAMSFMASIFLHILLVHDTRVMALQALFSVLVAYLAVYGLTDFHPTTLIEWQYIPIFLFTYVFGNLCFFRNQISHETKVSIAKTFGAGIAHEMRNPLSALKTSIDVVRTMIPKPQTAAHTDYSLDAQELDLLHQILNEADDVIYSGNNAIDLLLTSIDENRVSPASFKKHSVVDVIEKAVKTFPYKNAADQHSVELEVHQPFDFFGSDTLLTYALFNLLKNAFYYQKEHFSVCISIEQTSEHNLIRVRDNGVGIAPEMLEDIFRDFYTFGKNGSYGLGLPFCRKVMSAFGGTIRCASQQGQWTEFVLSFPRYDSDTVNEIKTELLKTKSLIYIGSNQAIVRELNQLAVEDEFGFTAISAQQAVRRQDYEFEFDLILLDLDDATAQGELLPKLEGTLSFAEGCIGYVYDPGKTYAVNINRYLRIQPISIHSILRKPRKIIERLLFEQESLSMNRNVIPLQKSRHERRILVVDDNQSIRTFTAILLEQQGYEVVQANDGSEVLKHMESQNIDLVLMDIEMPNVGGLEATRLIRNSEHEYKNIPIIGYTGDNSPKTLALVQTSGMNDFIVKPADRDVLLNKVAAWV
# Method Summary: CqsS agonist bioassay (V. cholerae reporter strain MM920, bioluminescence)
# Setup Conditions: CqsS agonist bioassay
Outcome Measure: QS agonist potency (in words)

These solved cases illustrate the format of a correct answer.
Molecule	Measured Result
CCCCCCCCCC(=O)c1c(C)c[nH]c1C [Compound 20]	lower agonist activity
C/C=C(\N)C(=O)CCCCCCCC [Compound 9, (Z)-3-aminododec-2-en-4-one]	low nM activity
CCCCCCCCCC(=O)c1cc(C)[nH]c1C [Compound 19]	lower agonist activity
C/C=C(\N)C(=O)CCCCCCCCC [Ea-CAI-1, (Z)-3-aminotridec-2-en-4-one, reference compound]	low nM activity
O=C(Cc1ccc(-c2ccccc2)cc1)c1ccc[nH]1 [Compound 35]	essentially inactive

stdin: Determine reported QS agonist potency (in words) for O=C(Cc1ccc(-c2ccccc2)cc1)c1cc[nH]c1 [Compound 34] ; test system: V. cholerae CqsS receptor (Vibrio cholerae serotype O1, UniProt Q9KM66).
stdout: essentially inactive

---

# Measured On: V. cholerae CqsS receptor (Vibrio cholerae serotype O1, UniProt Q9KM66)
# Method Summary: CqsS agonist bioassay (V. cholerae reporter strain MM920, bioluminescence)
# Setup Conditions: read-out: % Response, Percent maximal bioluminescence with respect to Ea-CAI-1, which is set at 100%
The entries below come with measured Emax values attached.
Write down the numeric answer in % and omit the unit.

See these solved cases before continuing.
Compound	Outcome Measure	Unit Abbreviation	Measured Result
C/C=C(\N)C(=O)CCCCC [Compound 6, (Z)-3-aminonon-2-en-4-one]	Emax	%	100
C/C=C(\N)C(=O)CCCCCCCCCCCC [Compound 11, (Z)-3-aminohexadec-2-en-4-one]	Emax	%	38

stdin: For the compound C/C=C(\N)C(=O)CCCCCCCC [Compound 9, (Z)-3-aminododec-2-en-4-one] , give its reported Emax.
stdout: 112

stdin: For the compound C/C=C(\N)C(=O)CCCCCCCCC [Ea-CAI-1, (Z)-3-aminotridec-2-en-4-one, reference compound] , report Emax.
stdout: 100

stdin: Tell us which Emax value is on record for C/C=C(\N)C(=O)CCCCCCC [Compound 8, (Z)-3-aminoundec-2-en-4-one]
stdout: 109
